meta.source: PubChem BioAssay AID1996

- Test context: buffer; pH 7.4; 200.0 µM
The entries below come with measured solubility kinetic values attached.

{"columns": ["Compound", "Result modifier", "solubility kinetic / µg/mL"],
 "data": [
  ["Nc1nc(N)n(-c2ccccc2)c(=Nc2ccccc2)n1", ">", 41.7],
  ["CN(Cc1ccccc1Cl)C(=O)c1cc2ccccc2o1", "=", 13.7],
  ["O=C(CN1C(=O)c2ccccc2S1(=O)=O)c1ccc(F)cc1", "=", 9.7],
  ["O=C(Cc1ccccc1)NCC(=O)N/N=C/c1ccc(C(=O)O)cc1", ">", 50.9],
  ["CNC(=S)SCCOc1ccccc1", "=", 17.5],
  ["Cn1c(=O)c2ccccc2n(CC(=O)NC2CCCC2)c1=O", "=", 40.2],
  ["COc1cccc(NC(=O)c2cc3ccccc3oc2=O)c1", "<", 0.6],
  ["COc1ccc2[nH]cc(/C=C/C(=O)c3ccccc3)c2c1", "=", 2.9],
  ["COc1ccc2nc(N(Cc3ccccc3)C(=O)CCNC(C)=O)sc2c1", "=", 3.3],
  ["O=C(CC(=O)c1ccccc1)Nc1ccccc1", "=", 29.5],
  ["Cn1cc(S(=O)(=O)NC2CCCC2)c(=O)n(C)c1=O", ">", 43.1],
  ["CCCCC(=O)N1CC(=O)Nc2ccc(F)cc2C1c1ccc(F)cc1 (stereo not given)", ">", 53.8],
  ["Cc1cc(C(=O)OCC(=O)NCc2ccccc2Cl)c(C)o1", "=", 2.2],
  ["CC1CCN(CCC(=O)Nc2ccc(F)c(F)c2)CC1", ">", 42.3],
  ["Cn1c(=O)c2cnc(-c3ccc(C(F)(F)F)cc3)nc2n(C)c1=O", "<", 0.2],
  ["CCC1CCCCN1C(=O)CCCc1ccccc1 (stereo not given)", "=", 33.2],
  ["Cc1onc(-c2ccccc2Cl)c1C(=O)Nc1ccccc1O", "=", 17.2],
  ["O=C(CC12CC3CC(CC(C3)C1)C2)Nc1c(F)cccc1F", "<", 0.7],
  ["CC(CC(=O)O)CC(=O)Nc1ccc(Br)cc1 (stereo not given)", ">", 45],
  ["COc1ccc2[nH]c(=O)c(CNc3cc(C)ccc3C)cc2c1", "=", 1.8],
  ["COc1ccc(CNC(=O)C(C)N(C)Cc2cccc(F)c2)cc1 (stereo not given)", "=", 26.1],
  ["O=C(O)c1cncc(C#CCC2CCCCC2)c1", "=", 34.8],
  ["Cc1nc(-c2ccc3c(c2)CCC(=O)N3)cs1", "=", 31.7],
  ["COc1ccc(C)cc1NC(=O)NCc1ccco1", "=", 11],
  ["CC(=O)Nc1ccc(-n2c(C)ccc2-c2ccccc2)cc1", "=", 4.4]
]}
